# EXPERIMENTAL_TARGET: T1, wild-type rat apelin receptor-EGFP (rat, UniProt Q9JHG3 1-377, EGFP is fused at the C-terminal (intracellular) end of the receptor. It is not included in the letters.)
# T1 sequence: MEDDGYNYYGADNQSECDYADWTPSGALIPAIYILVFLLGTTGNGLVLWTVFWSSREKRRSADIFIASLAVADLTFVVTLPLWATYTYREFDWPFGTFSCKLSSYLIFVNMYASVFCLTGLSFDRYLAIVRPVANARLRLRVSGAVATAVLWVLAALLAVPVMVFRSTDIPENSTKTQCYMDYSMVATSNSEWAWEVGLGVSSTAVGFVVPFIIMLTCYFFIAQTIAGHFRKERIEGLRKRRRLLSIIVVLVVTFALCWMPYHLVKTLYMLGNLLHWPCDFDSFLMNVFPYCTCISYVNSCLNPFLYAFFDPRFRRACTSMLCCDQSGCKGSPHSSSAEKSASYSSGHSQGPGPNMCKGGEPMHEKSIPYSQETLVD
# PROCEDURE_TEXT: cell-based or functional assay
Where no end group is shown, it is not given here. The star is where a group is joined. Propanoyl(3-C8F17) = O=C(CCC(F)(F)C(F)(F)C(F)(F)C(F)(F)C(F)(F)C(F)(F)C(F)(F)C(F)(F)F)*; Palmitoyl = CCCCCCCCCCCCCCCC(=O)*
READOUT_KIND: IC50 cAMP inhibition (nM)

BINDER	READOUT_KIND	ASSAY_RESULT
K(heptadecafluoroundecanoyl)FRRQRPRLSHKGPMPF [JFM V-0220B]	IC50 cAMP inhibition	1
Palmitoyl-KFRRQRPRLSHKGPMPF [JFM V-0196A]	IC50 cAMP inhibition	3.9
KKFRRQRPRLSHKGPMPF (fluorocarbon (perfluoroalkyl) group on the εNH2 of the added N-terminal linker L-lysine) [JFM V-0210/1]	IC50 cAMP inhibition	3.8
K(Palmitoyl)FRRQRPRLSHKGPMPF [JFM V-0220A]	IC50 cAMP inhibition	2
{Propanoyl(3-C8F17)}-KFRRQRPRLSHKGPMPF [JFM V-0196B]	IC50 cAMP inhibition	3.1
KKFRRQRPRLSHKGPMPF (acyl group RC(O)- on the εNH2 of the added N-terminal linker L-lysine) [JFM V-0210/2]	IC50 cAMP inhibition	1.4
